These entries and their values trace back to ChEMBL document CHEMBL2094260.

System: Mycobacterium tuberculosis
Experiment: MMV: Screen against Mtb, single point, non replicating, at 25uM
Format: functional

>  <compound>
COc1ccc2nc(C)cc(Nc3ccc(Cl)cc3)c2c1

>  <inhibition at 25 µM / %>
7.32

$$$$
>  <compound>
COc1ccc2sc(N(Cc3cccnc3)C(=O)c3ccc(C#N)cc3)nc2c1

>  <inhibition at 25 µM / %>
5.22

$$$$
>  <compound>
CC(C)(C)c1ccc(O)c(CNC2CCCCC2)c1

>  <inhibition at 25 µM / %>
16.6

$$$$
>  <compound>
COc1cccc(O)c1CN1CCC2(CCCN(Cc3ccc(F)cc3)C2)C1 (stereo unspecified)

>  <inhibition at 25 µM / %>
16.4

$$$$
>  <compound>
Cc1ccc(F)cc1NC(=O)c1cc(Cl)ccc1Nc1ccccc1

>  <inhibition at 25 µM / %>
28.5

$$$$
>  <compound>
O=C(NC1CCCCC1)C(c1cccs1)N(CCc1ccccc1)C(=O)c1ccco1 (stereo unspecified)

>  <inhibition at 25 µM / %>
2.2

$$$$

* * *

Measured inhibition at 25 µM accompanies every entry in the list below.
Tested on: Mycobacterium tuberculosis
Experiment: MMV: Screen against Mtb, single point, non replicating, at 25uM
Assay type: functional

>  <molecule>
CCOC(=O)C1(Cc2ccccc2)CCN(Cc2cccc(OC)c2O)CC1

>  <system.under.test>
Mycobacterium tuberculosis

>  <inhibition at 25 µM>
8.77%

$$$$
>  <molecule>
Nc1ccc(-c2nc3cc(Cc4ccc5[nH]c(-c6ccc(N)cc6)nc5c4)ccc3[nH]2)cc1

>  <system.under.test>
Mycobacterium tuberculosis

>  <inhibition at 25 µM>
41.4%

$$$$
>  <molecule>
CCOC(=O)c1cnc2c(C)cc(C)cc2c1Nc1ccc(OC)c(OC)c1

>  <system.under.test>
Mycobacterium tuberculosis

>  <inhibition at 25 µM>
3.83%

$$$$
>  <molecule>
COC(=O)c1ccc(Cl)c2c1C1C=CCC1C(c1cccc3ccccc13)N2 (stereo not given)

>  <system.under.test>
Mycobacterium tuberculosis

>  <inhibition at 25 µM>
-4.9%

$$$$
>  <molecule>
COc1cccc(Cn2c(Oc3ccccc3)nc3c2c(=O)n(C)c(=O)n3C)c1

>  <system.under.test>
Mycobacterium tuberculosis

>  <inhibition at 25 µM>
-1.06%

$$$$

* * *

System: Mycobacterium tuberculosis
Test: MMV: Screen against Mtb, single point, non replicating, at 25uM
Assay type: functional
inhibition at 25 µM of 10% or higher: condition met. Under 10%: condition not met.

>  <compound>
CCCCCCc1cc(O)c2c3c(c(=O)oc2c1)CCC(C)C3 (stereo not given)

>  <system.under.test>
Mycobacterium tuberculosis

>  <group>
condition met

$$$$
>  <compound>
Cc1cc(C)c2nc(N3CCC(C(=O)NCCCN4CCC(N5CCCCC5)CC4)CC3)sc2c1

>  <system.under.test>
Mycobacterium tuberculosis

>  <group>
condition met

$$$$
>  <compound>
O=C(O)C1Cc2c([nH]c3ccccc23)C(c2ccc(Cl)cc2Cl)N1 (stereo not given)

>  <system.under.test>
Mycobacterium tuberculosis

>  <group>
condition not met

$$$$
>  <compound>
CC1CCN(Cc2ccc(NC(=O)c3cc4ccc5cccnc5c4[nH]3)cc2)CC1

>  <system.under.test>
Mycobacterium tuberculosis

>  <group>
condition met

$$$$
>  <compound>
c1ccc(Cn2c(N=Nc3c(Nc4ccccc4)ccc4ccccc34)nc3ccccc32)cc1

>  <system.under.test>
Mycobacterium tuberculosis

>  <group>
condition met

$$$$
>  <compound>
c1ccc(/C2=N/c3ccccc3/N=C(/c3ccccc3)c3ccccc32)cc1

>  <system.under.test>
Mycobacterium tuberculosis

>  <group>
condition met

$$$$
>  <compound>
CCCCCCc1cc2cc(-c3nc4ccccc4[nH]3)c(=Nc3ccccc3C)oc2cc1O

>  <system.under.test>
Mycobacterium tuberculosis

>  <group>
condition met

$$$$
>  <compound>
CCOc1cccc2sc(N(Cc3cccnc3)C(=O)C3CCCCC3)nc12

>  <system.under.test>
Mycobacterium tuberculosis

>  <group>
condition met

$$$$
>  <compound>
Cc1ccc2cc3c(N)c4c(C)ccc(C)c4nc3nc2c1

>  <system.under.test>
Mycobacterium tuberculosis

>  <group>
condition not met

$$$$
>  <compound>
OCCNc1nc(Nc2ccc(Cl)c(Cl)c2)nc2ccccc12

>  <system.under.test>
Mycobacterium tuberculosis

>  <group>
condition met

$$$$
>  <compound>
c1ccc(-c2ccc(-c3nc4ccccc4[nH]3)cc2)cc1

>  <system.under.test>
Mycobacterium tuberculosis

>  <group>
condition not met

$$$$
>  <compound>
O=C(Nc1ccc(CN2CCOCC2)cc1)c1ccc(-c2cc(Cl)ccc2Cl)o1

>  <system.under.test>
Mycobacterium tuberculosis

>  <group>
condition met

$$$$
>  <compound>
COc1ccc(CN2CCCC(C(=O)c3ccc(C(F)(F)F)cc3)C2)c(O)c1 (stereo not given)

>  <system.under.test>
Mycobacterium tuberculosis

>  <group>
condition not met

$$$$
>  <compound>
O=C(Nc1ccc(Br)cc1)Nc1cccc(Cl)c1

>  <system.under.test>
Mycobacterium tuberculosis

>  <group>
condition met

$$$$
>  <compound>
Cc1ccc2nc(C)cc(Nc3cccc(C(F)(F)F)c3)c2c1

>  <system.under.test>
Mycobacterium tuberculosis

>  <group>
condition met

$$$$
>  <compound>
Clc1cc(Br)ccc1-c1ccc(CNCC2CCNCC2)o1

>  <system.under.test>
Mycobacterium tuberculosis

>  <group>
condition met

$$$$
>  <compound>
Cc1cccc(N2C(=O)C3C(C2=O)C2(c4ccccc4)C(=O)C3(c3ccccc3)C(c3ccc4c(c3)OCO4)=C2c2ccc3c(c2)OCO3)c1 (stereo not given)

>  <system.under.test>
Mycobacterium tuberculosis

>  <group>
condition met

$$$$
>  <compound>
COc1ccc(/C=C2/SC(=Nc3ccccc3)NC2=O)cc1

>  <system.under.test>
Mycobacterium tuberculosis

>  <group>
condition met

$$$$
>  <compound>
Cc1ccc(CSCc2ccc(C(=O)NC3CC3)o2)cc1

>  <system.under.test>
Mycobacterium tuberculosis

>  <group>
condition met

$$$$
>  <compound>
CC(C)(C)c1ccc(C2CC3=Nc4ccccc4N(C(=O)c4ccccc4Cl)C(c4ccc(F)cc4)C3=C(O)C2)cc1 (stereo not given)

>  <system.under.test>
Mycobacterium tuberculosis

>  <group>
condition met

$$$$
>  <compound>
CCCCc1c(C)nc2c(OC)cccc2c1O

>  <system.under.test>
Mycobacterium tuberculosis

>  <group>
condition not met

$$$$
>  <compound>
Cc1cc(C)cc(Nc2cc(C)nc3nc(C(F)(F)F)nn23)c1

>  <system.under.test>
Mycobacterium tuberculosis

>  <group>
condition not met

$$$$
>  <compound>
CCOc1cccc(C(=O)Nc2ccc(-c3nc4ccccc4[nH]3)cc2)c1

>  <system.under.test>
Mycobacterium tuberculosis

>  <group>
condition met

$$$$
>  <compound>
COc1ccc(C2NCCc3c2[nH]c2ccccc32)cc1CN1CCN(c2ccc(F)cc2)CC1 (stereo not given)

>  <system.under.test>
Mycobacterium tuberculosis

>  <group>
condition met

$$$$
>  <compound>
CSc1ccccc1C(=O)Nc1nc(-c2ccccn2)cs1

>  <system.under.test>
Mycobacterium tuberculosis

>  <group>
condition met

$$$$
>  <compound>
CC(NCc1ccccc1)c1cc(Cl)ccc1O (stereo not given)

>  <system.under.test>
Mycobacterium tuberculosis

>  <group>
condition met

$$$$
>  <compound>
O=C(Nc1ccc(-c2nc3cc4ccccc4cc3[nH]2)cc1)c1cccc(Br)c1

>  <system.under.test>
Mycobacterium tuberculosis

>  <group>
condition met

$$$$
>  <compound>
COc1ccccc1CNC(=O)CCn1c(=O)[nH]c2ccccc2c1=O

>  <system.under.test>
Mycobacterium tuberculosis

>  <group>
condition met

$$$$
>  <compound>
Oc1ccc(Br)cc1CN1CCN(Cc2ccc(Cl)cc2)CC1

>  <system.under.test>
Mycobacterium tuberculosis

>  <group>
condition met

$$$$
>  <compound>
Cc1cc(NC(=O)c2ccc(-c3ccccc3)cc2)no1

>  <system.under.test>
Mycobacterium tuberculosis

>  <group>
condition met

$$$$
>  <compound>
Cc1ccc(C)c(-c2csc(Nc3ccc(C)c(C)c3)n2)c1

>  <system.under.test>
Mycobacterium tuberculosis

>  <group>
condition not met

$$$$
>  <compound>
CCOC(=O)c1c[nH]c2c(CC)cccc2c1=O

>  <system.under.test>
Mycobacterium tuberculosis

>  <group>
condition met

$$$$
>  <compound>
OC1=C2C(=Nc3ccccc3SC2c2ccc(Br)cc2)c2ccccc21 (stereo not given)

>  <system.under.test>
Mycobacterium tuberculosis

>  <group>
condition not met

$$$$
>  <compound>
CNCCCNc1ccnc2cc(Cl)ccc12

>  <system.under.test>
Mycobacterium tuberculosis

>  <group>
condition not met

$$$$
>  <compound>
COc1ccc(CN2CCN(Cc3ccccc3)CC2)c(O)c1

>  <system.under.test>
Mycobacterium tuberculosis

>  <group>
condition not met

$$$$
>  <compound>
COc1ccc(-n2ccnc2SCC(=O)Nc2cc(C)ccc2C)c(OC)c1

>  <system.under.test>
Mycobacterium tuberculosis

>  <group>
condition not met

$$$$
>  <compound>
O=C(Nc1ccc(Cl)c(Cl)c1)Nc1ccc(Cl)c(Cl)c1

>  <system.under.test>
Mycobacterium tuberculosis

>  <group>
condition met

$$$$
>  <compound>
CC1CC2=C(CC1CNCCCN(C)C)C(C)(C)CCC2 (stereo not given)

>  <system.under.test>
Mycobacterium tuberculosis

>  <group>
condition not met

$$$$
>  <compound>
O=C(NC1CCN(Cc2ccccc2)CC1)c1cc(-c2ccncc2)nc2ccc(Cl)cc12

>  <system.under.test>
Mycobacterium tuberculosis

>  <group>
condition met

$$$$
>  <compound>
COc1ccc(C=C2SC(=N)N(c3ccccc3OC)C2=O)cc1

>  <system.under.test>
Mycobacterium tuberculosis

>  <group>
condition not met

$$$$
>  <compound>
COc1cccc(C(=O)Nc2ccc(-c3nc4ccccc4[nH]3)cc2)c1

>  <system.under.test>
Mycobacterium tuberculosis

>  <group>
condition not met

$$$$
>  <compound>
CCn1nc(-c2ccc(C(=O)OC)cc2)nc2c(=O)n(C)c(=O)nc1-2

>  <system.under.test>
Mycobacterium tuberculosis

>  <group>
condition met

$$$$
>  <compound>
CCOc1cc2c(cc1OCC)C(c1cc(OC)c(O)cc1Cl)NCC2 (stereo not given)

>  <system.under.test>
Mycobacterium tuberculosis

>  <group>
condition met

$$$$
